assay: Quantitative High-Throughput drug screen in 47 multiple myeloma cell lines against the NCATS MIPE library collection: ARD_JJKsccE7 cell viability assay (AID 1918929)
conditionDescription: ARD myeloma cell line viability, CellTiter-Glo, 48 h; series mostly up to 45.8 µM
Records with an inconclusive call do not appear. The source made the active and inactive calls. Calls come from the whole dose curve; as a rule, active = well fitted cell-killing curve with a large enough effect; inconclusive = small, poorly fitted or top-dose-only effect, or effect the other way; inactive = no such curve, though single readings can be large or run the other way.
Valid outcomes are listed here; reply with one: T for active, F for inactive

Could you check what this test reported for `COc1ccc(-c2oc3c(CC=C(C)C)c(O)cc(O)c3c(=O)c2O)cc1` ? F

----------
assay: Quantitative High-Throughput drug screen in 47 multiple myeloma cell lines against the NCATS MIPE library collection: OPM1_PLB cell viability assay (AID 1918989); note: nearly all actives have a fitted effect of over 40% in size
conditionDescription: CellTiter-Glo, 48 h; series mostly up to 45.8 µM
Records with an inconclusive call do not appear. Calls of active or inactive are those of the source. The call rests on the fitted dose curve; in most records, active means well fitted cell-killing curve with a large enough effect; inconclusive means small, poorly fitted or top-dose-only effect, or effect the other way; inactive means no such curve, though single readings can be large or run the other way.
Valid outcomes are listed here; reply with one: active, inactive

>>> discretelabel("O=C1NC(=O)C(c2cnc3ccccn23)=C1c1cn2c3c(cccc13)CN(C(=O)N1CCOCC1)CC2")
"active"
>>> discretelabel("COc1cc([C@H]2Oc3cc([C@H]4Oc5cc(O)cc(O)c5C(=O)[C@H]4O)ccc3O[C@H]2CO)ccc1O")
"active"
>>> discretelabel("CO[C@@H]1C(N(C)C(=O)c2ccccc2)C[C@H]2O[C@]1(C)n1c3ccccc3c3c4c(c5c6ccccc6n2c5c31)C(=O)NC4=O (stereo partly drawn)")
"active"
>>> discretelabel("c1ccc(CNc2nc(N3CCOc4ccccc43)nc3c2CCCC3)cc1")
"inactive"

Could you check what this test reported for `O=C(CO)N1CCC(c2[nH]nc(-c3ccc(Cl)cc3)c2-c2ccncn2)CC1` ? active

----------
assay: Quantitative High-Throughput drug screen in 47 multiple myeloma cell lines against the NCATS MIPE library collection: AMO1_DSMZ cell viability assay (AID 1918927; note: nearly all actives have a fitted effect of over 30% in size)
conditionDescription: AMO1 myeloma cells viability, CellTiter-Glo ATP luminescence, 48 h; series mostly up to 45.8 µM
Records with an inconclusive call do not appear. Calls of active or inactive are those of the source. Calls come from the whole dose curve; as a rule, active = well fitted cell-killing curve with a large enough effect; inconclusive = small, poorly fitted or top-dose-only effect, or effect the other way; inactive = no such curve, though single readings can be large or run the other way.
Valid outcomes are listed here; reply with one: T (active), F (inactive)

Examples from the recorded data:
>>> discretelabel("CO[C@H]1O[C@@H]2O[C@@]3(C)CC[C@@H]4[C@@H](C)CC[C@@H]([C@H]1C)[C@@]24OO3")
"T"
>>> discretelabel("COc1cccc(OC)c1-c1cc(C(=O)NC2(C(=O)O)C3CC4CC(C3)CC2C4)nn1-c1ccnc2cc(Cl)ccc12 (stereo not given)")
"F"
>>> discretelabel("Cc1ccc(NC(=O)c2cccc(N(C)C)c2)cc1NC(=O)c1ccc(O)cc1")
"T"
>>> discretelabel("CC(=O)O[C@]1(C(C)=O)CC[C@H]2[C@@H]3C=C(Cl)C4=CC(=O)[C@@H]5C[C@H]5[C@]4(C)[C@@H]3CC[C@@]21C")
"T"
>>> discretelabel("Cc1ccccc1-n1c(Cn2nc(-c3cccc(O)c3)c3c(N)ncnc32)nc2cccc(C)c2c1=O")
"T"
>>> discretelabel("Nc1[nH]nc2nnc(-c3c(-c4ccccc4)nn4ccccc34)cc12")
"T"
>>> discretelabel("CCOC(=O)N1c2ccc(C(F)(F)F)cc2[C@@H](N(Cc2cc(C(F)(F)F)cc(C(F)(F)F)c2)C(=O)OC)C[C@H]1CC")
"F"
>>> discretelabel("COc1ccc(CCN(C)CCCOc2ccc(S(=O)(=O)c3[nH]c4ccccc4c3C(C)C)cc2)cc1OC")
"F"
>>> discretelabel("CN1CC(=O)N2C(Cc3c([nH]c4ccccc34)[C@H]2c2ccc3c(c2)OCO3)C1=O (stereo not given in full)")
"F"
>>> discretelabel("CCOC(=O)N1CCN([N+]([O-])=NOc2cc(ON=[N+]([O-])N3CCN(C(=O)OCC)CC3)c([N+](=O)[O-])cc2[N+](=O)[O-])CC1")
"F"

Consider now this further molecule.
Could you check what this test reported for `CC(C)(C)c1nc(-c2cccc(NS(=O)(=O)c3c(F)cccc3F)c2F)c(-c2ccnc(N)n2)s1` ? T

----------
assay: Primary fluorescence-based thiol-reactive (MSTI) qHTS assay for identification of artifact compounds. (AID 1845221);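 note: thiol-reactive compounds lower the probe fluorescence signal; nearly all actives have a fitted effect of over 65% in size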
conditionDescription: MSTI thiol-reactivity probe, 1 h; series mostly up to 53.8 µM
Records with an inconclusive call do not appear. Activity calls are given as the source filed them. Calls follow the shape of the dose curve; as a rule, active = well fitted inhibition curve with a large enough effect; inconclusive = small, poorly fitted or top-dose-only effect; inactive = no such curve, though single readings can be large or run the other way.
Valid outcomes are listed here; reply with one: active, inactive

Examples from the recorded data:
>>> discretelabel("NS(=O)(=O)c1ccc(Nc2nc(OCC3CCCCC3)c3[nH]cnc3n2)cc1")
"inactive"
>>> discretelabel("CC1=C[C@@H]2[C@@H]([C@@H](O)C[C@@]3(C)[C@H]2C[C@@H](C)[C@]3(O)C(=O)CO)[C@@]2(C)Cc3cnn(-c4ccccc4)c3C=C12")
"inactive"
>>> discretelabel("Nc1ncnc2c1c(-c1cccc(OCc3ccccc3)c1)cn2C1CC(CN2CCC2)C1 (stereo not given)")
"inactive"
>>> discretelabel("Cc1cnc(Nc2cccc(CN3CCOCC3)c2)nc1Nc1cccc(S(=O)(=O)NC(C)(C)C)c1")
"inactive"
>>> discretelabel("N#CC1(c2cccc(C(=O)Nc3cc(Oc4ccc5nc(NC(=O)C6CC6)sc5n4)ccc3F)c2Cl)CC1")
"inactive"
>>> discretelabel("Cc1cc2c(cc1C1(c3ccc(C(=O)O)cn3)CC1)C(C)(C)CCC2(C)C")
"inactive"

Could you check what this test reported for CC1=C(C(=O)Nc2cc3cn[nH]c3cc2F)C(c2ccc(C(F)(F)F)cc2)CC(=O)N1 (stereo not given) ? inactive

Could you check what this test reported for O[C@@H](COc1cccc2ncccc12)CN1CCN(C2c3ccccc3[C@@H]3[C@H](c4ccccc42)C3(F)F)CC1 (stereo not given in full) ? inactive

Could you check what this test reported for `Cc1cccc2c1CC[C@H](CN1CCC(c3c(Cl)cccc3Cl)CC1)C[C@@H]2O` ? inactive

----------
assay: qHTS of pediatric cancer cell lines to identify multiple opportunities for drug repurposing: Primary screen for MG 63 (6-TG R) cells (AID 1347105); note: nearly all actives have a fitted effect of over 50% in size
conditionDescription: MG 63 (6-TG R) viability, CellTiter-Glo, 48 h; series mostly up to 46 µM
Records with an inconclusive call do not appear. Activity calls are given as the source filed them. Calls follow the shape of the dose curve; as a rule, active = well fitted cell-killing curve with a large enough effect; inconclusive = small, poorly fitted or top-dose-only effect; inactive = no such curve, though single readings can be large or run the other way.
Valid outcomes are listed here; reply with one: t for active, f for inactive

Examples from the recorded data:
>>> discretelabel("CCCCC(C=O)NC(=O)C(CC(C)C)NC(=O)OCc1ccccc1 (stereo not drawn)")
"f"
>>> discretelabel("Cc1cn([C@@H]2C[C@@H](O)[C@H](CO)O2)c(=O)[nH]c1=O")
"f"
>>> discretelabel("OC[C@H]1O[C@@H](OCCc2ccc(O)cc2)[C@H](O)[C@@H](O)[C@H]1O")
"f"
>>> discretelabel("Cc1nc(C(=O)NCC(=O)O)c(O)c2ccc(Oc3ccccc3)cc12")
"f"

Could you check what this test reported for Cc1ccccc1C(C(=O)NC1CCCCC1)N(C(=O)CNc1ccc(C#N)cc1)c1cccc(F)c1 (stereo not drawn) ? f

Could you check what this test reported for `CO[C@H]1/C=C\O[C@@]2(C)Oc3c(C)c(O)c4c(O)c(c(C=NN5CCN(C6CCCC6)CC5)c(O)c4c3C2=O)NC(=O)C(C)=CC=C[C@H](C)[C@H](O)[C@@H](C)[C@@H](O)[C@@H](C)[C@H](OC(C)=O)[C@H]1C` ? t

Could you check what this test reported for `COc1ccc2c(c1)CC[C@H]1[C@@H]2CC[C@]2(C)[C@@H](NCCCCCCN3C(=O)C=CC3=O)CC[C@H]12` ? f

Could you check what this test reported for `c1ccc(CNc2nc(N3CCOc4ccccc43)nc3c2CCCC3)cc1` ? f

Could you check what this test reported for `CCC=CC[C@H]1C(=O)CC[C@@H]1CC(=O)OC` ? f

Could you check what this test reported for `O=C(CC12CC3CC(CC(C3)C1)C2)Nc1cccc2nc(NCCNCCO)ccc12` ? t

Could you check what this test reported for `COc1cc(F)c(C(C)C)cc1-c1ccc(C(F)(F)F)cc1CN1C(=O)O[C@H](c2cc(C(F)(F)F)cc(C(F)(F)F)c2)[C@@H]1C` ? f

Could you check what this test reported for `O=C1NC(=O)C(c2cnc3ccccn23)=C1c1cn2c3c(cccc13)CN(C(=O)N1CCOCC1)CC2` ? t

Could you check what this test reported for COc1nccc(-c2c(-c3ccc(F)cc3)ncn2C2CCC(O)CC2)n1 (stereo not drawn) ? f

----------
We begin with a simple list: items and their reported Potency.
assay: qHTS of pediatric cancer cell lines to identify multiple opportunities for drug repurposing: Primary screen for OHS-50 cells (AID 1347103); note: potency is the fitted concentration of half-maximal effect; nearly all actives have a fitted effect of over 40% in size
conditionDescription: OHS-50 osteosarcoma viability, CellTiter-Glo luminescence, 48 h; series mostly up to 57.3 µM
Results filed as inconclusive are left out. Activity calls are given as the source filed them. Calls come from the whole dose curve; as a rule, active = well fitted cell-killing curve with a large enough effect; inconclusive = small, poorly fitted or top-dose-only effect; inactive = no such curve, though single readings can be large or run the other way.

Use these answered entries as a reference point.
>>> measuredresult("O=C(O)c1ccc(O)c2ncc(N3CCOCC3)cc12")
"24.3 µM (active)"
>>> measuredresult("O=S(=O)(NCCNCC=Cc1ccc(Br)cc1)c1cccc2cnccc12")
"7.69 µM (active)"

Item `CNC(=O)c1ccc2c(C(=Nc3cccc(CN(C)C)c3)c3ccccc3)c(O)[nH]c2c1` : provide Potency 13.7 µM (active)
